# system_name: T1, cynomolgus FGFR3b expressed with a C-terminal myc-myc-hexahistidine tag (mfFGFR3b.mmH) (cynomolgus)
# T1 construct: also called REGN3521; mf FGFR3b ecto (R357G)(E23-G377;R357G).mmH
# T1 chain: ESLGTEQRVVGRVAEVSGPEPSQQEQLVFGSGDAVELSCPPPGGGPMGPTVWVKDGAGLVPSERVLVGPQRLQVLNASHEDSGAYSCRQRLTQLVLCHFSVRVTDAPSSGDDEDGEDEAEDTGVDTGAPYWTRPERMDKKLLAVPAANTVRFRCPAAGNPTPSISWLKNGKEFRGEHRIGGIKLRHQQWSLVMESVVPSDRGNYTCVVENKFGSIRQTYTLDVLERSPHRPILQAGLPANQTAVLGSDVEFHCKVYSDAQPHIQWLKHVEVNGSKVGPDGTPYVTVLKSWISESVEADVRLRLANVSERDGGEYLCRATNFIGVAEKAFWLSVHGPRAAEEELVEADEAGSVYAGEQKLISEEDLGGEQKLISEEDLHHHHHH
# test_name: SPR Biacore, mAb captured on anti-hFc, 25C
measurement_type: Kd (nM)
Supply the numeric figure in nM, leaving out any unit text.

binder	Kd, nM
H4H30076P (antibody, human IgG4 S228P, kappa, V domains shown) VH: EVQLVESGGGLVQPGGSLRLSCAASGFTVSSNYMSWVRQAPGKGLEWVSIIYSGGHTYYSDSVKGRFTISRHNSKNTLYLQMNSLRGGDTAVYYCARGYTSGWYGFDFWGQGTLVTVSS VL: DIQMTQSPSSVSASVGDRVTITCRASQGISTWLAWYQQKPGKAPKLLIYAASSLQSGVPSRFSGTGSGTDFTLTISSLQPEDFATYYCQQTNSFPWTFGQGTKVEIKR	0.165

Pending binder:
Prompt: Consider the binder shown here: H4H30063P (antibody, human IgG4 S228P, kappa, V domains shown, HCVR 2, LCVR 10; also called REGN15684) VH: QVQLQESGPGLVKPSETLSLTCTVSGDSINSYFWSWIRQLPGKELEWIGHIYSSGSTRYNPSLQSRVTISIDTSKNQFSLKLSSVTAADTAVYYCARGASAVDYWGQGTLVTVSS VL: EIVLTQSPGTLSLSPGERATLSCRTSQSISSGYLAWYQQKPGQAPRLLIYGASRRATGIPDRFSGSGSGTDFTLTISRLEPEDFVVYYCQQYGSSPYTFGQGTKLEIKR What is its recorded Kd?
Completion: 0.275
